# maps each entry to its pIC50
subject-of-test: UniProt Q86YT5
Sequence (Q86YT5 whole entry): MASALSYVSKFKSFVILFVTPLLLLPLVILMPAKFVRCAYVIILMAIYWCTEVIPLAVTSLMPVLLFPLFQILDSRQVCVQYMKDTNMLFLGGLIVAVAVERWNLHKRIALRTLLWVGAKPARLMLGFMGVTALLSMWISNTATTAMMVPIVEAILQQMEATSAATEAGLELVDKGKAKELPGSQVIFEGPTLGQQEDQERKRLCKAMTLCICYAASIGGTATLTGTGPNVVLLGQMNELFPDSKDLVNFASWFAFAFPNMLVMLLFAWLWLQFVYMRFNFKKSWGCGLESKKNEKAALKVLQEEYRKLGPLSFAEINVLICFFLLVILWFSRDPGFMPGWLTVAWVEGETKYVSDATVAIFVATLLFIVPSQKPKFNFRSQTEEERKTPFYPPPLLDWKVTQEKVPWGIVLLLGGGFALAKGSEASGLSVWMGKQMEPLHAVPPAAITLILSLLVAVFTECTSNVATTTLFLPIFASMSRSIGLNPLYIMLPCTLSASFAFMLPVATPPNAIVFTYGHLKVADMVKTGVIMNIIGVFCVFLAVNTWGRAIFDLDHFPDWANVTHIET
assay-method-text: HepG2/14C-citrate uptake assay
Type: cell-based
Set-up: HepG2 cells endogenously express hSLC13A5 transporter which is responsible for the uptake of citrate into these cells; endogenous in cells; host or cells: HepG2
condition-context: HepG2 cells endogenously expressing hSLC13A5; Cytostar-T; 14C-citrate ~1.8 μM; incubation over night
Description: (4) HepG2/^14C-Citrate Uptake Assay HepG2 cells endogenously expressing hSLC13A5 were obtained from the Wistar Institute (Knowles et al., Science 1980, 209, 497-499). HepG2 cells endogenously express hSLC13A5 transporter which is responsible for the uptake of citrate into these cells. […] The uptake of ^14C-citrate into HepG2 cells is monitored using the Cytostar-T assay. […] The IC50 values of the compounds are calculated in IDBS XLfit by sigmoidal dose-response (variable slope).
pIC50: −log10 of the molar value.
value-type: pIC50

# smiles-data, value-type, quantitative-result
data = [
    ("Cc1ccc(CNC(=O)C2CCN(S(=O)(=O)c3cc(Cl)cc(Cl)c3)CC2)nc1", "pIC50", 6.82),
    ("O=C(NCc1ccccc1F)C1CCN(S(=O)(=O)c2cc(Br)cc(Br)c2)CC1", "pIC50", 7.85),
    ("CCOc1cc(Cl)cc(S(=O)(=O)N2CCC(C(=O)NCc3nccs3)CC2)c1", "pIC50", 7.00),
    ("Cc1cc(C)cc(S(=O)(=O)N2CCC(C(=O)NCc3ccc(Br)cc3)CC2)c1", "pIC50", 7.77),
    ("Cc1cc(C)cc(CNC(=O)C2CCN(S(=O)(=O)c3cc(Cl)cc(Cl)c3)CC2)c1", "pIC50", 7.03),
]
